# Tested on: HOP-62
# test_summary: NCI tumour cell line growth inhibition, 48 h
The source made the active and inactive calls. Cut-off read from the data, not from the text of the source: active = GI50 up to about 1.1 µM and inactive = higher.
assay_endpoint: GI50

[in] Reported GI50 for CC(=O)[O-].Cc1ncc(CO)c(/C=N/NC(N)=S)c1[O-].[Zn+2] : what is it?
[out] > 100 µM (inactive)

[in] Reported GI50 for COc1nc2ccc(COc3ccc(C(=O)O)cc3)cc2nc1OC : what is it?
[out] > 100 µM (inactive)

***
[in] Reported GI50 for COc1cc2c(cc1-c1coc3cc(OCC=C(C)C)ccc3c1=O)OCO2 : what is it?
[out] 29.8 µM (inactive)

[in] Reported GI50 for N#CC(C(=O)c1ccccc1F)c1nc2cc(C(F)(F)F)ccc2s1 (stereo not given) : what is it?
[out] 18.7 µM (inactive)

[in] Reported GI50 for Clc1c(Cl)c(Cl)c2nn(C3CCCO3)nc2c1Cl (stereo not given) : what is it?
[out] 28.1 µM (inactive)

[in] Reported GI50 for Cn1c(=O)c2c(ncn2CCNC(CO)C(O)c2ccc([N+](=O)[O-])cc2)n(C)c1=O (stereo not given) : what is it?
[out] > 100 µM (inactive)

[in] Reported GI50 for C=CC12CN(C)C3C4COC(CC41)C1(C(=O)Nc4ccccc41)C32 (stereo not given) : what is it?
[out] > 147 µM (inactive)

[in] Reported GI50 for Cn1c(-c2ccccc2)c/c(=N\NS(C)(=O)=O)c2cc(S(=O)(=O)O)ccc21 : what is it?
[out] > 100 µM (inactive)

====

# Test system: SR
# test_summary: NCI tumour cell line growth inhibition, 48 h
Calls of active or inactive are those of the source. Rule as the data show it: active = GI50 up to about 1.1 µM and inactive = higher.
Pick one: active, inactive

Record excerpt, results attached:
[in] Hello, I am checking results. What call was entered for COC(=O)C1=C(O)C(C(=O)OC)[C@@]2(O)[C@@H](C(=O)OC)CC[C@@H]1[C@@H]2C(=O)OC (stereo not given in full) ?
[out] inactive

[in] Hello, I am checking results. What call was entered for O=C(O)Cc1ccc(Oc2nc3ccccc3nc2C(=O)O)cc1 ?
[out] active

[in] Hello, I am checking results. What call was entered for COC(=O)c1c(O)ccc2c1c1c(n2Cc2ccc(Cl)cc2Cl)C(=O)c2ccccc2C1 ?
[out] inactive

[in] Hello, I am checking results. What call was entered for Cn1cnc(/C=C/C#N)c1 ?
[out] inactive

[in] Hello, I am checking results. What call was entered for CC1=C(c2cc(C(=O)Nc3cccc(C(F)(F)F)c3)ncn2)Sc2ccccc2N1 ?
[out] inactive

[in] Hello, I am checking results. What call was entered for O=[N+]([O-])c1ccc(O)c(/C=N/c2nc(-c3ccccc3)cs2)c1 ?
[out] inactive

***
[in] Hello, I am checking results. What call was entered for COC(=O)NC(=O)NC(Cc1ccccc1)NC(=O)OCc1ccccc1 (stereo not given) ?
[out] inactive

[in] Hello, I am checking results. What call was entered for Cc1cc(C)c(C#N)c(SC(=S)NC(=O)c2ccccc2)n1 ?
[out] inactive

[in] Hello, I am checking results. What call was entered for CCOC(=O)/C(=N/Nc1ccc(C)cc1)N1C(=S)N(C)N=C(C)C=C1S ?
[out] inactive

[in] Hello, I am checking results. What call was entered for O=c1c(Cc2ccc(Cc3c(O)oc4ccccc4c3=O)cc2)c(O)oc2ccccc12 ?
[out] inactive

[in] Hello, I am checking results. What call was entered for CCOC(=O)C(C)(C)Oc1ccc2c(=O)cc(-c3ccc(Cl)cc3)oc2c1 ?
[out] inactive

[in] Hello, I am checking results. What call was entered for CC1(C)OCC2OC3(c4nc(C#N)c(N)o4)OC(C)(C)OC3C2O1 (stereo not given) ?
[out] inactive

[in] Hello, I am checking results. What call was entered for CCOC(=O)C(C)NC(=O)C(C)NC(=O)C(C)NC(=O)C(C)NC(=O)C(C)NC(=O)OCc1ccccc1 (stereo not given) ?
[out] inactive

[in] Hello, I am checking results. What call was entered for C=CCN1C(=O)/C(=C/c2ccc(Cl)cc2)N=C1SC/C=C/C ?
[out] inactive

[in] Hello, I am checking results. What call was entered for CC(=O)Nc1sccc1S(=O)(=O)c1ccc(Cl)cc1 ?
[out] inactive

[in] Hello, I am checking results. What call was entered for O=C(O)c1c(O)c2cc(Br)ccc2oc1=O ?
[out] inactive

[in] Hello, I am checking results. What call was entered for Sc1nnc(-c2ccccc2Nc2ccccc2-c2nnc(S)n2-c2ccccc2)n1-c1ccccc1 ?
[out] inactive

[in] Hello, I am checking results. What call was entered for CCC1(O)C(=O)OCc2c1cc1n(c2=O)Cc2cc3cc(OC)c(OC)cc3nc2-1 (stereo not given) ?
[out] inactive

[in] Hello, I am checking results. What call was entered for C#CC(O)/C=C/C(O)CCCC(O)CC#CC(O)C#CCCCCC(O)/C=C/CCCC(=O)CCCCCCCCCCCCCCCC(O)C(O)C#CC(=O)O (stereo not given) ?
[out] inactive

[in] Hello, I am checking results. What call was entered for CC(=O)[C@]1(O)Cc2c(O)c3c(c(O)c2[C@@H](OC2CC(N)C(O)C(C)O2)C1)C(=O)c1c(OCc2ccccc2)cccc1C3=O (stereo not given in full) ?
[out] active
